These measurements were taken from ChEMBL document CHEMBL1146098.

Let's go through some IC50 measurements on Estrogen receptor (Homo sapiens, UniProt P03372) together.
The reply should contain only the number, in µM.

Fill in reported IC50 for this entry: Oc1ccc(-n2cnc3cc(O)cc(O)c3c2=S)nc1
27.6

Quote IC50 reported for Nc1cc(O)cc2ncn(-c3ccc(O)cc3)c(=O)c12 please.
15.5

Please indicate IC50 recorded for O=c1c2c(O)cc(O)cc2ncn1-c1cccc(O)c1
43.8

Given CCc1nc2cc(O)cc(O)c2c(=O)n1-c1ccc(O)cc1 , respond with its IC50.
19.4

Return the recorded IC50 value; entry: Oc1cc(O)c2c(=S)n(-c3ccc(O)c(F)c3)cnc2c1
3.08

Tell me measured IC50 for O=c1c2c(O)cc(O)cc2ncn1-c1ccc(O)cn1 please.
98

In one line, give reported IC50 of the entry Cc1cc(-n2cnc3cc(O)cc(O)c3c2=O)ccc1O .
34.6

Quick one: give measured IC50 for Cc1cc(-n2cnc3cc(O)cc(O)c3c2=S)ccc1O
2.85

Please supply the value of reported IC50 for the item CCc1cc(O)cc2ncn(-c3ccc(O)cc3)c(=O)c12
13.2

Answer with the recorded IC50 of Cc1c(O)cc(O)c2c(=O)n(-c3ccc(O)cc3)cnc12 only.
15.3

Let me know recorded IC50 for Oc1ccc(-n2cnc3cc(O)cc(O)c3c2=S)cc1 , thanks.
2.64

Given the compound Cc1cc(O)cc2ncn(-c3ccc(O)cc3)c(=S)c12 , write its reported IC50.
1.75

* * *

Biological target: UniProt:P03372
Sequence (P03372 whole entry): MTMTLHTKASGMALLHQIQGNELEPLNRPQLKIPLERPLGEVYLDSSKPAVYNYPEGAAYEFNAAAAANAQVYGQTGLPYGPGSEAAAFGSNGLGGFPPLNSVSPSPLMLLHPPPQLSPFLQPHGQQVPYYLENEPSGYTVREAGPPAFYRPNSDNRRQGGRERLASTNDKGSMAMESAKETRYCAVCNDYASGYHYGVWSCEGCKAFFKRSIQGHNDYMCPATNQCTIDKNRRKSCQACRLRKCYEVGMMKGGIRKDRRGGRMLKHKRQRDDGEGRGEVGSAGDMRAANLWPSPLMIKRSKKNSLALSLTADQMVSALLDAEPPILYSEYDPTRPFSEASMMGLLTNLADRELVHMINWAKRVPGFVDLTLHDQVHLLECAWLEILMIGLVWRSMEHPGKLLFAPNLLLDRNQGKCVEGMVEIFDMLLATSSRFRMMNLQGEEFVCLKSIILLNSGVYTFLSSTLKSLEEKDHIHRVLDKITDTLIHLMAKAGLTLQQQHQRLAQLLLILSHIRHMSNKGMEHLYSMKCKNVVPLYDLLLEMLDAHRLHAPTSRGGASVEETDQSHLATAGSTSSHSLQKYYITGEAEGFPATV
readoutKind: IC50 (µM)
Return type: number; implicit unit µM.

Output measured IC50 for this item: O=c1c2c(O)cc(O)cc2[nH]c(=S)n1-c1ccc(O)cc1
11.1

Specify reported IC50 for the compound shown: O=c1c2c(CO)cc(O)cc2ncn1-c1ccc(O)cc1
0.121

Name the recorded IC50 of the item Cc1cc(O)cc2ncn(-c3ccc(O)cc3)c(=O)c12 in your answer.
9.63

Provide IC50 value for the following compound: O=c1c2c(O)cc(O)cc2ncn1-c1ccc(O)cc1
11.1

Provide measured IC50 value, entry: O=c1c2c(O)cc(O)cc2ncn1-c1ccc(O)c(F)c1
44.2

Specify IC50 for CCc1cc(O)cc2ncn(-c3ccc(O)cc3)c(=S)c12 and stop.
2.26

Provide IC50 value for the following compound: CC(C)c1nc2cc(O)cc(O)c2c(=O)n1-c1ccc(O)cc1
70.4

Using the record for Cc1nc2cc(O)cc(O)c2c(=O)n1-c1ccc(O)cc1 , state its measured IC50.
33.2

* * *

molecular target: Estrogen receptor beta (Homo sapiens)
readoutKind: pIC50
Units for pIC50: none; it is -log10 of a concentration expressed in mol/L.

Report the value of pIC50 obtained on Estrogen receptor beta (Homo sapiens) for O=c1c2c(O)cc(O)cc2ncn1-c1cccc(O)c1 .
5.42

Please indicate recorded pIC50 of CC(C)c1nc2cc(O)cc(O)c2c(=O)n1-c1ccc(O)cc1 measured with Estrogen receptor beta (Homo sapiens).
4.32

Give pIC50 for this entry on Estrogen receptor beta (Homo sapiens): Cc1cc(-n2cnc3cc(O)cc(O)c3c2=S)ccc1O
6.18

Given O=c1c2c(O)cc(O)cc2[nH]c(=S)n1-c1ccc(O)cc1 , report its pIC50 on Estrogen receptor beta (Homo sapiens).
5.16

Consider the molecule O=c1c2c(OS(=O)(=O)C(F)(F)F)cc(O)cc2ncn1-c1ccc(O)cc1 tested on Estrogen receptor beta (Homo sapiens); state its pIC50.
4.92

Report pIC50 from Estrogen receptor beta (Homo sapiens) testing of O=c1c2c(O)cc(O)c(I)c2ncn1-c1ccc(O)cc1
5.39

Give reported pIC50 for O=c1c2c(O)cc(O)cc2nc(Cl)n1-c1ccc(O)cc1 (Estrogen receptor beta (Homo sapiens))
4.87

Quote Estrogen receptor beta (Homo sapiens) pIC50 for entry Cc1cc(O)ccc1-n1cnc2cc(O)cc(O)c2c1=O .
6.37

Enter pIC50 (test system Estrogen receptor beta (Homo sapiens)) for Cc1nc2cc(O)cc(O)c2c(=O)n1-c1ccc(O)cc1
4.94

Enter recorded pIC50 with Estrogen receptor beta (Homo sapiens) for O=c1c2c(O)cc(O)cc2ncn1-c1ccc(O)cc1 here.
6.75

Provide the reported pIC50 (system: Estrogen receptor beta (Homo sapiens)) for O=c1c2ccc(O)cc2ncn1-c1ccc(O)cc1
5.07

Report measured pIC50 on Estrogen receptor beta (Homo sapiens); entry: C=C(C)c1cc(O)cc2ncn(-c3ccc(O)cc3)c(=O)c12
5.64

Answer with pIC50 of CCCCc1nc2cc(O)cc(O)c2c(=O)n1-c1ccc(O)cc1 measured for Estrogen receptor beta (Homo sapiens).
6.60

Find the measured pIC50 of CCc1cc(O)cc2ncn(-c3ccc(O)cc3)c(=O)c12 with Estrogen receptor beta (Homo sapiens) as test system.
6.58

Under Estrogen receptor beta (Homo sapiens): report pIC50 of O=c1c2c(O)c(I)c(O)c(I)c2ncn1-c1ccc(O)cc1 .
4.91

# return pIC50 of Cc1cc(-n2cnc3cc(O)cc(O)c3c2=O)ccc1O (system: Estrogen receptor beta (Homo sapiens))
5.13

* * *

Would you kindly list log10(EC50) for each of these compounds?
Record value = log10 of EC50 given in µM.

Give measured log10(EC50) for Nc1cc(O)cc2ncn(-c3ccc(O)cc3)c(=O)c12 (Estrogen receptor beta (Homo sapiens, UniProt Q92731)).
0.31

Give measured log10(EC50) for Oc1ccc(-c2coc3cc(O)cc(O)c3c2=S)cc1 (Estrogen receptor beta (Homo sapiens, UniProt Q92731)).
-1.85

Provide log10(EC50), tested on Estrogen receptor beta (Homo sapiens, UniProt Q92731), for CCc1cc(O)cc2ncn(-c3ccc(O)cc3)c(=O)c12 .
Sequence (Q92731 whole entry): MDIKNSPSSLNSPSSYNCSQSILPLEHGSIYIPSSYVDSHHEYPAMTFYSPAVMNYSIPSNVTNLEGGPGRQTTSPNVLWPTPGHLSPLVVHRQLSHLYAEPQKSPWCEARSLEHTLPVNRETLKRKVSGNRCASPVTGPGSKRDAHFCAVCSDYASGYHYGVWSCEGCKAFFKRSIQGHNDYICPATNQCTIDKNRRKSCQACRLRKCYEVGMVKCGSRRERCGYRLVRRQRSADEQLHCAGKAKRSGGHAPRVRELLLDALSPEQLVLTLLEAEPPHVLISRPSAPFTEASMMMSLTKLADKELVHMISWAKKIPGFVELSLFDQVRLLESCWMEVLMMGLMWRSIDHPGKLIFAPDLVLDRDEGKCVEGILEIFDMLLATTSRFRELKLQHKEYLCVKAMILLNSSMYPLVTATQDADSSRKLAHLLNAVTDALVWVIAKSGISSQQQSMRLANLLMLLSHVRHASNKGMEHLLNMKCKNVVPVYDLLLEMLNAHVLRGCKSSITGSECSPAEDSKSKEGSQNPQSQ
-1.21

Under Estrogen receptor beta (Homo sapiens, UniProt Q92731): report log10(EC50) of Oc1cc(O)c2c(=S)n(-c3ccc(O)c(F)c3)cnc2c1 .
-1.70

Look up Estrogen receptor beta (Homo sapiens, UniProt Q92731) data: log10(EC50) of O=c1c2c(O)cc(O)cc2nc(Cl)n1-c1ccc(O)cc1 , then report it.
0.94

Using Estrogen receptor beta (Homo sapiens, UniProt Q92731) as the test system, report measured log10(EC50) of O=c1c2c(-c3ccccc3)cc(O)cc2ncn1-c1ccc(O)cc1 .
1.07

Find the measured log10(EC50) of COC(=O)c1cc(OC(C)=O)cc2ncn(-c3ccc(OC(C)=O)cc3)c(=S)c12 with Estrogen receptor beta (Homo sapiens, UniProt Q92731) as test system.
1.05

Give log10(EC50); test system Estrogen receptor beta (Homo sapiens, UniProt Q92731); compound Oc1ccc(-n2cnc3cc(O)cc(O)c3c2=S)nc1
-0.76

Report measured log10(EC50) on Estrogen receptor beta (Homo sapiens, UniProt Q92731); entry: CCc1nc2cc(O)cc(O)c2c(=O)n1-c1ccc(O)cc1
0.10

Provide log10(EC50), recorded with Estrogen receptor beta (Homo sapiens, UniProt Q92731), of C=Cc1cc(O)cc2ncn(-c3ccc(O)cc3)c(=O)c12
-0.12

With Estrogen receptor beta (Homo sapiens, UniProt Q92731) as the test system, provide measured log10(EC50) for this compound: O=c1c2c(O)c(I)c(O)cc2ncn1-c1ccc(O)cc1
0.21

Report the value of log10(EC50) obtained on Estrogen receptor beta (Homo sapiens, UniProt Q92731) for O=c1c2c(O)cc(O)cc2ncn1-c1ccccc1 .
0.24

State log10(EC50) (Estrogen receptor beta (Homo sapiens, UniProt Q92731)) of Cc1cc(-n2cnc3cc(O)cc(O)c3c2=O)ccc1O .
0.10

Tell me log10(EC50) of O=c1c2c(O)cc(O)cc2ncn1-c1ccc(O)c(F)c1 when tested on Estrogen receptor beta (Homo sapiens, UniProt Q92731).
-0.93

Fill: log10(EC50) (Estrogen receptor beta (Homo sapiens, UniProt Q92731)) for this compound COc1cc(O)c2c(=O)n(-c3ccc(O)cc3)c(=S)[nH]c2c1
0.58

Output reported log10(EC50) of the compound O=c1c2c(O)cc(O)cc2ncn1-c1ccc(O)cc1Cl on Estrogen receptor beta (Homo sapiens, UniProt Q92731).
-0.60

Supply log10(EC50) measured with Estrogen receptor beta (Homo sapiens, UniProt Q92731) for Cc1cc(-n2cnc3cc(O)cc(O)c3c2=S)ccc1O .
-0.80

Name the recorded log10(EC50) of Oc1ccc(-n2cnc3cc(O)cc(O)c3c2=S)cc1 , assay system Estrogen receptor beta (Homo sapiens, UniProt Q92731).
-1.89

Write down the reported log10(EC50) (system: Estrogen receptor beta (Homo sapiens, UniProt Q92731)) of O=c1c2c(O)c(I)c(O)c(I)c2ncn1-c1ccc(O)cc1
0.29

State the measured log10(EC50) (Estrogen receptor beta (Homo sapiens, UniProt Q92731)) of N#Cc1cc(O)cc2ncn(-c3ccc(O)cc3)c(=O)c12
0.88

Retrieve log10(EC50) on Estrogen receptor beta (Homo sapiens, UniProt Q92731); query O=c1c2c(O)cc(O)c(I)c2ncn1-c1ccc(O)cc1
-0.23

Answer with log10(EC50) of O=c1c2c(O)cc(O)cc2ncn1-c1ccc(O)c(Cl)c1 measured for Estrogen receptor beta (Homo sapiens, UniProt Q92731).
0.07

// fetch log10(EC50); item: O=c1c2c(O)cc(O)cc2ncn1-c1ccc(O)cc1 ; system: Estrogen receptor beta (Homo sapiens, UniProt Q92731)
-1.12

State log10(EC50) (Estrogen receptor beta (Homo sapiens, UniProt Q92731)) of O=c1c2c(O)cc(O)cc2ncn1-c1cccc(O)c1 .
-0.04

Provide log10(EC50), recorded with Estrogen receptor beta (Homo sapiens, UniProt Q92731), of O=c1c2c(O)cc(O)cc2ncn1-c1ccc(O)nc1
0.99

Give log10(EC50) for this entry on Estrogen receptor beta (Homo sapiens, UniProt Q92731): COc1cc(O)c2c(=O)n(-c3ccc(O)cc3)cnc2c1
0.93

Tell me its log10(EC50) on Estrogen receptor beta (Homo sapiens, UniProt Q92731): Cc1cc(O)ccc1-n1cnc2cc(O)cc(O)c2c1=O
-0.95

Please look at Cc1cc(O)cc2ncn(-c3ccc(O)cc3)c(=S)c12 and tell me its recorded log10(EC50) on Estrogen receptor beta (Homo sapiens, UniProt Q92731).
-0.65

Jot down log10(EC50) (Estrogen receptor beta (Homo sapiens, UniProt Q92731)) of COc1cc(O)cc2ncn(-c3ccc(O)cc3)c(=O)c12 .
0.93

Return reported log10(EC50) for target or system Estrogen receptor beta (Homo sapiens, UniProt Q92731), item COC(=O)c1cc(O)cc2ncn(-c3ccc(O)cc3)c(=O)c12 .
0.97

Fetch value of log10(EC50) on Estrogen receptor beta (Homo sapiens, UniProt Q92731) for O=c1c2c(OS(=O)(=O)C(F)(F)F)cc(O)cc2ncn1-c1ccc(O)cc1 .
0.58

State measured log10(EC50) of the compound Cc1cc(O)cc2ncn(-c3ccc(O)cc3)c(=O)c12 with Estrogen receptor beta (Homo sapiens, UniProt Q92731).
-0.87

Under Estrogen receptor beta (Homo sapiens, UniProt Q92731), report log10(EC50) for Cc1c(O)cc(O)c2c(=O)n(-c3ccc(O)cc3)cnc12
0.95

# assay system Estrogen receptor beta (Homo sapiens, UniProt Q92731): give log10(EC50) of O=c1c2c(CO)cc(O)cc2ncn1-c1ccc(O)cc1
0.65

Look up and report measured log10(EC50) (Estrogen receptor beta (Homo sapiens, UniProt Q92731)) for the following compound: O=c1c2c(O)cc(O)cc2ncn1-c1ccc(O)cn1
-0.45

Find log10(EC50) for Cc1nc2cc(O)cc(O)c2c(=O)n1-c1ccc(O)cc1 on Estrogen receptor beta (Homo sapiens, UniProt Q92731) and write it down.
0.20

Report the value of log10(EC50) obtained on Estrogen receptor beta (Homo sapiens, UniProt Q92731) for O=c1[nH]c2cc(O)cc(O)c2c(=O)n1-c1ccc(O)cc1 .
0.12

Check Estrogen receptor beta (Homo sapiens, UniProt Q92731) data and give log10(EC50) for O=c1c2c(O)cc(O)cc2ncn1-c1ccc(O)cc1F .
-0.72

Give log10(EC50) for CCc1cc(O)cc2ncn(-c3ccc(O)cc3)c(=S)c12 tested on Estrogen receptor beta (Homo sapiens, UniProt Q92731).
-1.28

Given O=c1c2c(O)cc(O)cc2[nH]c(=S)n1-c1ccc(O)cc1 , report its log10(EC50) on Estrogen receptor beta (Homo sapiens, UniProt Q92731).
0.30

Return reported log10(EC50) for target or system Estrogen receptor beta (Homo sapiens, UniProt Q92731), item C=C(C)c1cc(O)cc2ncn(-c3ccc(O)cc3)c(=O)c12 .
-0.14

// fetch log10(EC50) for O=c1c2ccc(O)cc2ncn1-c1ccc(O)cc1 ; system: Estrogen receptor beta (Homo sapiens, UniProt Q92731)
-0.02
